Measured MIC, listed per entry.
- Test system: Escherichia coli
- assay-protocol: Antimicrobial activity against Escherichia coli J53 harboring pEK499 plasmid encoding CTX-M extended-spectrum beta-lactamases
- Assay type: functional
quantity-kind: MIC (µg/mL)

[
  {
    "molecule": "CN[C@@H]1[C@H](O[C@H]2[C@H](O[C@H]3[C@H](O)[C@@H](O)[C@H](N=C(N)N)[C@@H](O)[C@@H]3N=C(N)N)O[C@@H](C)[C@]2(O)C=O)O[C@@H](CO)[C@H](O)[C@H]1O [STREPTOMYCIN]",
    "unit-symbol": "µg/mL",
    "comparison-sign": "=",
    "experimental-result": 32
  },
  {
    "molecule": "Cc1cc(NS(=O)(=O)c2ccc(N)cc2)no1 [SULFAMETHOXAZOLE]",
    "unit-symbol": "µg/mL",
    "comparison-sign": ">",
    "experimental-result": 1020
  },
  {
    "molecule": "C[C@H]1[C@H](NC(=O)/C(=N\\OC(C)(C)C(=O)O)c2csc(N)n2)C(=O)N1S(=O)(=O)O [AZTREONAM]",
    "unit-symbol": "µg/mL",
    "comparison-sign": ">",
    "experimental-result": 64
  },
  {
    "molecule": "O=C(N[C@H](CO)[C@H](O)c1ccc([N+](=O)[O-])cc1)C(Cl)Cl [CHLORAMPHENICOL]",
    "unit-symbol": "µg/mL",
    "comparison-sign": "=",
    "experimental-result": 2
  },
  {
    "molecule": "CN(C)[C@@H]1C(O)=C(C(N)=O)C(=O)[C@@]2(O)C(O)=C3C(=O)c4c(O)cccc4[C@@](C)(O)[C@H]3C[C@@H]12 [TETRACYCLINE]",
    "unit-symbol": "µg/mL",
    "comparison-sign": "=",
    "experimental-result": 32
  },
  {
    "molecule": "CCN1CCN(C(=O)N[C@@H](C(=O)N[C@@H]2C(=O)N3[C@@H]2SC(C)(C)[C@@H]3C(=O)O)c2ccccc2)C(=O)C1=O [PIPERACILLIN]",
    "unit-symbol": "µg/mL",
    "comparison-sign": ">",
    "experimental-result": 64
  }
]
